In this section we review reported pIC50 values for a set of compounds.
- test system: JAK3 (JH1 and JH2 domain) (Homo sapiens)
- Sequence (P52333 521-1111 limits assumed): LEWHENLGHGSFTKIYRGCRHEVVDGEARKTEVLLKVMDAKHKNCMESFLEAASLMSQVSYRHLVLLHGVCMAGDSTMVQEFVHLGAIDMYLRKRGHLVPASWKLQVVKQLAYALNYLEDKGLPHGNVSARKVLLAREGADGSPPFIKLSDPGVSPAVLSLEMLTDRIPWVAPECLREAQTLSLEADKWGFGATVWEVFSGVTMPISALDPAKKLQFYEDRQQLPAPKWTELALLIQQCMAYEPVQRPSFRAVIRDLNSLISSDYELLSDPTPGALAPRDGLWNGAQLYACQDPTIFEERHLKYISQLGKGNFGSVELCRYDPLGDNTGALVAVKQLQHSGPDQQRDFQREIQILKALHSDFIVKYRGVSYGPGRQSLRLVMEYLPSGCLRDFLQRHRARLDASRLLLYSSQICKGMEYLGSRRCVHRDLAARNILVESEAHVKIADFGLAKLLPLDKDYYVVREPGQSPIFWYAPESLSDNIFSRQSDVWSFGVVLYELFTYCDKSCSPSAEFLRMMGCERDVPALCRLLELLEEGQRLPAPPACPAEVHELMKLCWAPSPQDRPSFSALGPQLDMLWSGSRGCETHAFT
- assay explanation: JAK3 Kinase Assay (ELISA of peptide substrate phosphorylation)
- test settings: purified JAK3 enzyme, 10 μM ATP, biotinylated peptide substrate, 1 hour at room temperature
pIC50: −log10 of the molar value.

Example entries and their recorded answers appear below.
compound	value observed
CCCNC(=O)OC1CCn2c3ccccc3c3c4c(c5c6ccccc6n(c5c32)C1)C(=O)NC4=O (stereo not drawn) [Cpd 38]	< 6.40
O=C(NCCCN1CCCC1=O)OCC1Cn2c3ccccc3c3c4c(c5c6ccccc6n(c5c32)C1)C(=O)NC4 (stereo not drawn) [Cpd 157]	< 6.70

Problem: // pIC50 lookup, key: Cc1ccc(CNC(=O)OCC2Cn3c4ccccc4c4c5c(c6c7ccccc7n(c6c43)C2)C(=O)NC5)o1 (stereo not drawn) [Cpd 156]
Solution: ~6.70
